System: NCI-H23 lung
Assay: NCI tumour cell line growth inhibition, 48 h
quantity name: TGI

Ask | # input compound: COc1ccc(C2=Nn3c(nc4sc5c(c4c3=O)CCCC5)SC2)cc1 ; wanted: its TGI
Reply | > 100 µM

Ask | Need TGI of CN1CCN(CCCn2c3c(sc4ncccc43)c(=O)n3nnc(-c4ccccc4)c23)CC1 , thanks.
Reply | 4.38 µM

Ask | TGI lookup needed for CCOC(=O)/C(C(N)=O)=C(/O)c1cnccn1 , thanks.
Reply | > 100 µM

Ask | Quick one: TGI of COc1cc(N2CCN(C(C)C)CC2)ccc1Nc1nc(Nc2ccc(F)cc2C(N)=O)c2cc[nH]c2n1 ?
Reply | 6.65 µM

Ask | Name the reported TGI value associated with the compound Nc1ccc(Oc2ccc(C34CC5CC(C3)CC(c3ccc(Oc6ccc(N)c(O)c6)cc3)(C5)C4)cc2)cc1O
Reply | 4.1 µM

Ask | Bench note: what TGI did COC(=O)/C(=C1\OC(=O)C(c2ccc(Cl)cc2)=C1O)c1ccc(Cl)cc1 show?
Reply | 40.3 µM

Ask | I am curious: what TGI value has been reported for Cc1cccc(Nc2ncc(-c3ccccc3)o2)c1 ?
Reply | > 25 µM

Ask | Field request: TGI | item: Cc1ccccc1N=C(c1ccccc1)C1C(=O)c2ccccc2C1=O
Reply | > 100 µM

Ask | Can you look up the measured TGI of Clc1cccc(C=NC23CC4CC(CC(C4)C2)C3)c1Cl for me?
Reply | > 10 µM

Ask | Quick check: TGI of COc1ccc(C2[C@@H](Cl)C(=O)N2c2ccc(OC)cc2)cc1 (some centres not stated) ?
Reply | > 100 µM

Ask | Can you share its TGI? I mean this compound: O=S1(=O)CC#CC[C@@H](CO)[C@@H](CO)CC#CC1
Reply | > 100 µM

Ask | Name the reported TGI value associated with the compound Cc1ccc(S(=O)(=O)N(CC(O)COc2ccccc2)c2ccccc2Cl)cc1 (configuration not stated)
Reply | 31.1 µM

Ask | Could you tell me which TGI is on file for CCN(CC(O)COc1ccc2c(c1)[n+]([O-])nc(N)[n+]2[O-])C(C)=O (configuration not stated) ?
Reply | > 100 µM

Ask | Reported TGI, compound O=C(Nc1c(Cl)cccc1Cl)Oc1cccc2cccnc12 : ____
Reply | 45.5 µM

Ask | Name the recorded TGI for CN(C)CCNC(=O)c1cccc2c(NC(CCCN=C(N)N)C(=O)O)c3ccccc3nc12 (configuration not stated) .
Reply | 30.5 µM

Ask | Report TGI for CC(=O)Nc1ccc(S(=O)(=O)Nc2cnc3ccccc3n2)cc1 please.
Reply | > 100 µM

Ask | What does the data say about its TGI? Entry: CN1C(=O)CC(CC(=O)C2CCCCC2=O)CC1=O (configuration not stated)
Reply | > 100 µM

Ask | Report TGI for CCOP(=O)(OCC)C(Cc1cn(S(=O)(=O)c2ccc(C)cc2)cn1)C(=O)O (configuration not stated) please.
Reply | > 100 µM

Ask | Please look up its TGI: CCN1CC2(CO)CCC(OC)C34C5CC6C(OC)CC(O)(C5C6OC)C(O)(C(OC)C23)C14 (configuration not stated)
Reply | > 375 µM

Ask | Look at this compound and give its reported TGI. COc1ccc2cc(CNCCOCCOCCNCc3ccc4cc(OC)ccc4c3)ccc2c1
Reply | 3.02 µM

Ask | What TGI value was documented for this compound, COc1cc(/C=C/[N+](=O)[O-])cc(OC)c1 ?
Reply | 4.37 µM

Ask | Could you share which TGI value was measured for CC1NCCC(CC(=O)O)C1CC(=O)O (configuration not stated) ?
Reply | > 100 µM

Ask | Fill in the blank: the reported TGI of CC(NC(=O)C(NC(=O)C(NC(=O)C(F)(F)F)C(C)C)C(C)C)C(=O)Oc1c(Cl)c(Cl)c(Cl)c(Cl)c1Cl (configuration not stated) is ____.
Reply | > 100 µM

Ask | Would you kindly share the measured TGI for Nc1nc(N)c2c(n1)NC(c1ccc(Cl)cc1)C1CCc3ccccc3C1=N2 (configuration not stated) ?
Reply | 18 µM

Ask | What does the record list as TGI for COc1ccc(NC(=O)CC2SC(=Nc3ccc(Cl)cc3C)NC2=O)c([N+](=O)[O-])c1 (configuration not stated) ?
Reply | > 100 µM

Ask | Look up TGI for this compound: COc1cc(OC)c(OC)cc1/C=C/c1ccc2ccccc2n1
Reply | > 10 µM

Ask | What value of TGI has been reported for the following compound? NC(=O)C1CCCN1Cc1ccc2c(c1)OCO2 (configuration not stated)
Reply | > 100 µM

Ask | # input compound: COc1cc2c(cc1OC)C/C(=N\O)c1cc(OC)c(OC)cc1/C=C\2 ; wanted: its TGI
Reply | > 100 µM

Ask | Can you share its TGI? I mean this compound: NC1=NN(c2ccccc2)C(=O)C1/C(=N\NC(=O)c1cc2ccccc2cc1O)C(=O)Nc1ccc(Cl)c(Cl)c1 (configuration not stated)
Reply | 63.5 µM

Ask | What does the data say about its TGI? Entry: Nc1nc(Cl)cc(Oc2ccc(Cl)cc2)n1
Reply | > 100 µM

Ask | Item Nc1nc(Cl)cc(OCC2(CO)CCCCC2)n1 has what recorded TGI?
Reply | > 100 µM

Ask | State the recorded TGI for this entry: C1=Nc2ccc(cc2)-c2ccc(cc2)N=Cc2ccccc2OCc2cccc(n2)COc2ccccc21
Reply | 45.9 µM

Ask | Look up TGI: C=C1C(O)C2OC(=O)C(=C)C2C(OC(=O)/C(C)=C/C)CC2(C)OC2C2OC12 (configuration not stated)
Reply | 35.3 µM

Ask | Could you share which TGI value was measured for O=S1(=O)OCCOS(=O)(=O)C1C1c2ccccc2-c2ccccc21 ?
Reply | > 100 µM

Ask | Name the recorded TGI for O=C(Nc1cccc(Cl)c1)Nc1cc(C(F)(F)F)ccc1Cl .
Reply | 6.59 µM

Ask | Given the entry Cc1cc(NCCCCCCCCNc2cc(C)nc3cc(N(C)C)ccc23)c2ccc(N(C)C)cc2n1 , report its measured TGI.
Reply | 15.2 µM

Ask | Would you mind telling me what TGI value was observed for Oc1ccc(Cl)cc1N=Nc1c(O)ccc2ccccc12 ?
Reply | > 100 µM

Ask | I am curious: what TGI value has been reported for Cc1ccccc1C1SCc2nc3ccccc3n21 (configuration not stated) ?
Reply | > 100 µM

Ask | Please report the recorded TGI for C#CCN(Cc1ccc2nc(-c3ccccc3)c(Cl)nc2c1)c1ccc(Cl)c(Cl)c1 .
Reply | > 100 µM

Ask | Quick one: TGI for O=c1oc2c(Cl)cc(Cl)cc2cc1-c1cn2c(n1)sc1ccccc12 ?
Reply | > 100 µM

Ask | // query TGI value for entry CC(=O)[C@H]1CC[C@@H]2[C@]1(C)CC=C1[C@]23C=C[C@]2(C[C@@H](O)CC[C@]12C)C(C(=O)O)C3C(=O)O (some centres not stated)
Reply | > 100 µM

Ask | Data request, read-out TGI, for Cn1c(SCc2ccc([N+](=O)[O-])cc2)nnc1C12CC3CC(CC(C3)C1)C2
Reply | > 10 µM
